experiment: self-splicing fitness, log relative to wild type (ln ratio); higher = more splicing; Tetrahymena group I intron in knt gene, E. coli kanamycin selection, DiMSum; sequences stand for … in CUCUCU…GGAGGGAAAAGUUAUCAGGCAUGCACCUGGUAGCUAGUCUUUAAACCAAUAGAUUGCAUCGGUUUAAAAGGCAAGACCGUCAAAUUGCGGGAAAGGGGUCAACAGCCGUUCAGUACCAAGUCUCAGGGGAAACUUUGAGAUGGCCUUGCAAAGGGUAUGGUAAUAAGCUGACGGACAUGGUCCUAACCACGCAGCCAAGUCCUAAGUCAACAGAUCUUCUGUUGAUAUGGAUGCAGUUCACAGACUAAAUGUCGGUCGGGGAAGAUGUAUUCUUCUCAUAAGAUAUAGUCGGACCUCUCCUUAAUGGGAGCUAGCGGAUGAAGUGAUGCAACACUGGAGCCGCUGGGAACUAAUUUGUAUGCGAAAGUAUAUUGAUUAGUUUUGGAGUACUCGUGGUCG; details: 30 °C;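 note: selection with 25 µg/mL kanamycin versus none on LB agar overnight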
Assay Metric: self-splicing fitness (ln)

Prompt: Look up self-splicing fitness (ln): GCGGAGCAAUAUUACGAUAG
Response: -2.96

Prompt: Look up self-splicing fitness (ln): UACAAGCAAUAUUACGGUCU
Response: -1.52

Prompt: Look up self-splicing fitness (ln): UAAGAGCAAUAUUACGAAUG
Response: -2.32

Prompt: Look up self-splicing fitness (ln): UUUUAGCAAUAUUACGUACA
Response: -2.16

Prompt: Look up self-splicing fitness (ln): GACCAGCAAUAUUACGUUUA
Response: -0.372

Prompt: Look up self-splicing fitness (ln): AUCCAGCAAUAUUACGCAGG
Response: -2.84

Prompt: Look up self-splicing fitness (ln): CGUAAGCAAUAUUACGACGC
Response: -1.86

Prompt: Look up self-splicing fitness (ln): GUUGAGCAAUAUUACGACGA
Response: -3.3
